# protocolNotes: Hepatocytes stability assay (human hepatocytes)
# Format: in vitro ADME
# assaySetup: both sexes, cryopreserved hepatocytes, 1 μM test compound, 1×10^6 cell/mL, 37 degrees C, read-out: CLint (μL/min/million cells)
parameter: hepatocyte CLint at 1 μM (µL/min/1e6 cells)

>>> df
                                   compound                 parameter  measurement
0  C[C@H]1CN2CCC[C@H](NS(C)(=O)=O)C2COC2CCC(CC2)c2ccccc2O1 (stereo partly shown) [Compound 48]  hepatocyte CLint at 1 μM           60
1  CS(=O)(=O)N[C@H]1CCCN2C(=O)COc3ccc(Br)cc3C3CCC(CC3)OCC12 (stereo partly shown) [Compound 57]  hepatocyte CLint at 1 μM          2.1
2  CS(=O)(=O)N[C@H]1CCCN2CCOc3ccccc3C3CCC(CC3)OCC12 (stereo partly shown) [Compound 6]  hepatocyte CLint at 1 μM           45
3  C[C@H]1COc2ccccc2C2CCC(CC2)OCC2[C@@H](NS(C)(=O)=O)CCCN21 (stereo partly shown) [Compound 62]  hepatocyte CLint at 1 μM           18
4  CS(=O)(=O)N[C@H]1CCCN2CC(F)(F)Oc3ccccc3C3CCC(CC3)OCC12 (stereo partly shown) [Compound 41]  hepatocyte CLint at 1 μM           60
5  CS(=O)(=O)N[C@H]1CCCN2CCOc3ccc(Cl)cc3C3CCC(CC3)OCC12 (stereo partly shown) [Compound 61]  hepatocyte CLint at 1 μM           33

I: CS(=O)(=O)N[C@H]1CCCN2C(=O)COc3c(F)cc(F)cc3C3CCC(CC3)OCC12 (stereo partly shown) [Compound 12]
II: CS(=O)(=O)N[C@@H]1CCCN2C(=O)COc3cnccc3[C@H]3CC[C@H](CC3)OC[C@H]12 (racemic) [Compound 47]
III: CS(=O)(=O)N[C@H]1CCCN2C(=O)COc3c(F)cccc3C3CCC(CC3)OCC12 (stereo partly shown) [Compound 11]
Query: Arrange items by their hepatocyte CLint at 1 μM values in increasing order. Reply format: the labels, ordered as requested.
Result: II, I, III
(II: 3 µL/min/1e6 cells, I: 13 µL/min/1e6 cells, III: 33 µL/min/1e6 cells)

* * *

# System: MDR1
# protocolNotes: MDCK-MDR1 permeability assay
# Assay type: in vitro ADME
# assaySetup: dog, MDCK-MDR1, MDCK-MDR1 cells, apical to basolateral, 3 μM test compound, 2 hours at 37 degrees C
parameter: Papp A→B at 2 h, 3 μM (nm/s)

molecule	parameter	measurement
CS(=O)(=O)N[C@H]1CCCN2CCOc3c(F)cc(F)cc3C3CCC(CC3)OCC12 (stereo partly shown) [Compound 58]	Papp A→B at 2 h, 3 μM	15

I: [2H][C@@H]1[C@@H]2C[C@H]([2H])[C@@]([2H])(c3cc(F)cc(F)c3OCC(=O)N3CCC[C@H](NS(C)(=O)=O)C3CO2)[C@@H]1[2H] (stereo partly shown) [Compound 50]
II: CS(=O)(=O)N[C@H]1CCN2CCOc3ccccc3C3CCC(CC3)OCC12 (stereo partly shown) [Compound 39]
III: CS(=O)(=O)N[C@@H]1CCCN2C(=O)COc3cccc(F)c3[C@H]3CC[C@H](CC3)OC[C@H]12 (racemic) [Compound 49]
Query: Order the records, beginning with the lowest Papp A→B at 2 h, 3 μM and ending with the highest. Please reply with the labels ordered as requested. Many thanks.
Result: III, I, II

* * *

# protocolNotes: Hepatocytes stability assay (human hepatocytes)
# Assay type: in vitro ADME
# assaySetup: both sexes, cryopreserved hepatocytes, 1 μM test compound, 1×10^6 cell/mL, 37 degrees C, read-out: CLint (μL/min/million cells)
parameter: hepatocyte CLint at 1 μM (µL/min/1e6 cells)

Reference set, count: 10
>>> print(df.to_string())
                                   compound      quantityunit  measurement
0  CS(=O)(=O)N[C@H]1CCN2CCOc3ccccc3C3CCC(CC3)OCC12 (stereo partly shown)  µL/min/1e6 cells           47
1  CS(=O)(=O)N[C@H]1CCCN2CCOc3ncccc3C3CCC(CC3)OCC12 (stereo partly shown)  µL/min/1e6 cells           34
2  CS(=O)(=O)N[C@H]1CCCN2C(=O)COc3ncccc3C3CCC(CC3)OCC12 (stereo partly shown)  µL/min/1e6 cells          6.9
3  CC1(C)Oc2ccccc2C2CCC(CC2)OCC2[C@@H](NS(C)(=O)=O)CCCN2C1=O (stereo partly shown)  µL/min/1e6 cells           66
4  C[C@H]1Oc2ccccc2C2CCC(CC2)OCC2[C@@H](NS(C)(=O)=O)CCCN2C1=O (stereo partly shown)  µL/min/1e6 cells           30
5  CS(=O)(=O)N[C@H]1CCN2C(=O)COc3c(F)cccc3C3CCC(CC3)OCC12 (stereo partly shown)  µL/min/1e6 cells           52
6  CS(=O)(=O)N[C@H]1CCCN2CCOc3c(F)cc(F)cc3C3CCC(CC3)OCC12 (stereo partly shown)  µL/min/1e6 cells           62
7  CS(=O)(=O)N[C@H]1CCCN2C(=O)COc3ccc(Cl)cc3C3CCC(CC3)OCC12 (stereo partly shown)  µL/min/1e6 cells          4.6
8  COC(=O)N1CCC[C@H](NS(C)(=O)=O)[C@@H]1CO[C@H]1CC[C@@H](c2ccccc2)CC1 [reference compound]  µL/min/1e6 cells           51
9  CS(=O)(=O)N[C@H]1CCCN2C(=O)COc3ccccc3C3CC[C@@H](CO3)OCC12 (stereo partly shown)  µL/min/1e6 cells          5.8

I: CS(=O)(=O)N[C@H]1CCCN2C(=O)C(F)(F)Oc3c(F)cc(F)cc3C3CCC(CC3)OCC12 (stereo partly shown)
II: CS(=O)(=O)N[C@H]1CCN2C(=O)COc3ccccc3C3CCC(CC3)OCC12 (stereo partly shown)
Query: Return label of the item with the larger hepatocyte CLint at 1 μM. Candidates: I , II . # reply format: chosen label
Result: I

* * *

# System: MDR1
# protocolNotes: MDCK-MDR1 permeability assay
# Type: in vitro ADME
# assaySetup: dog, MDCK-MDR1, MDCK-MDR1 cells, apical to basolateral, 3 μM test compound, 2 hours at 37 degrees C
parameter: Papp A→B at 2 h, 3 μM (×10⁻⁶ cm/s)

Below are worked cases with known answers.
                                   compound  targetsystem              parameter  quantityunit  measurement
0  CS(=O)(=O)N[C@H]1CCCN2C(=O)COc3ncc(F)cc3C3CCC(CC3)OCC12 (stereo partly shown)          MDR1  Papp A→B at 2 h, 3 μM    ×10⁻⁶ cm/s         0.83
1  CS(=O)(=O)N[C@H]1CCCN2C(=O)COc3ccccc3C3CC[C@H](CO3)OCC12 (stereo partly shown)          MDR1  Papp A→B at 2 h, 3 μM    ×10⁻⁶ cm/s         0.45
2  [2H]C1([2H])COc2ccccc2C2CCC(CC2)OCC2[C@@H](NS(C)(=O)=O)CCCN21 (stereo partly shown)          MDR1  Papp A→B at 2 h, 3 μM    ×10⁻⁶ cm/s          8.8
3  CS(=O)(=O)N[C@H]1CCCN2CCOc3c(F)cccc3C3CCC(CC3)OCC12 (stereo partly shown)          MDR1  Papp A→B at 2 h, 3 μM    ×10⁻⁶ cm/s           26
4  C[C@@H]1COc2ccccc2C2CCC(CC2)OCC2[C@@H](NS(C)(=O)=O)CCCN21 (stereo partly shown)          MDR1  Papp A→B at 2 h, 3 μM    ×10⁻⁶ cm/s          9.1
5  C[C@H]1Oc2ccccc2C2CCC(CC2)OCC2[C@@H](NS(C)(=O)=O)CCCN2C1=O (stereo partly shown)          MDR1  Papp A→B at 2 h, 3 μM    ×10⁻⁶ cm/s         0.77
6  CS(=O)(=O)N[C@H]1CCCN2CCOc3ccccc3C3CCC(CC3)OCC12 (stereo partly shown)          MDR1  Papp A→B at 2 h, 3 μM    ×10⁻⁶ cm/s           21
7  CS(=O)(=O)N[C@H]1CCCN2C(=O)COc3c(F)cc(F)cc3C3CCC(CC3)OCC12 (stereo partly shown)          MDR1  Papp A→B at 2 h, 3 μM    ×10⁻⁶ cm/s          2.3

a: CS(=O)(=O)N[C@H]1CCN2C(=O)COc3ccccc3C3CCC(CC3)OCC12 (stereo partly shown)
b: CS(=O)(=O)N[C@H]1CCCN2CCOc3ccc(Cl)cc3C3CCC(CC3)OCC12 (stereo partly shown)
Query: Please indicate which has the smaller reported Papp A→B at 2 h, 3 μM: a , or b . Please reply using the label of the selected record.
Result: b

A: C[C@@H]1Oc2ccccc2C2CCC(CC2)OCC2[C@@H](NS(C)(=O)=O)CCCN2C1=O (stereo partly shown)
B: CS(=O)(=O)N[C@H]1CCN2C(=O)COc3c(F)cccc3C3CCC(CC3)OCC12 (stereo partly shown)
Query: Which is greater in Papp A→B at 2 h, 3 μM, the first item A or the second item B ? State your choice using its label.
Result: B
(B: 11 ×10⁻⁶ cm/s, A: 0.91 ×10⁻⁶ cm/s)

a: CS(=O)(=O)N[C@H]1CCN2C(=O)C(F)(F)Oc3ccccc3C3CCC(CC3)OCC12 (stereo partly shown)
b: CS(=O)(=O)N[C@H]1CCCN2C(=O)COc3nccnc3C3CCC(CC3)OCC12 (stereo partly shown)
c: CS(=O)(=O)N[C@H]1CCCN2CCOc3ncccc3C3CCC(CC3)OCC12 (stereo partly shown)
d: CS(=O)(=O)N[C@@H]1CCCN2C(=O)COc3ccncc3[C@H]3CC[C@H](CC3)OC[C@H]12 (racemic)
Query: Arrange these compounds by their Papp A→B at 2 h, 3 μM, starting with the largest number. Show the ranking through the labels, in the order asked for.
Result: c, a, d, b

A: CS(=O)(=O)N[C@@H]1CCCN2C(=O)COc3cccnc3[C@H]3CC[C@H](CC3)OC[C@H]12 (racemic)
B: CS(=O)(=O)N[C@H]1CCCN2C(=O)COc3ncccc3C3CCC(CC3)OCC12 (stereo partly shown)
C: CS(=O)(=O)N[C@H]1CCN2C(=O)C(F)(F)Oc3c(F)cc(F)cc3C3CCC(CC3)OCC12 (stereo partly shown)
Query: Rank the items in ascending order with respect to Papp A→B at 2 h, 3 μM. # the answer lists labels in the order requested
Result: A, B, C
(A: 0.08 ×10⁻⁶ cm/s, B: 0.31 ×10⁻⁶ cm/s, C: 2.6 ×10⁻⁶ cm/s)

1: CS(=O)(=O)N[C@H]1CCCN2C(=O)C(F)(F)Oc3c(F)cc(F)cc3C3CCC(CC3)OCC12 (stereo partly shown)
2: CS(=O)(=O)N[C@H]1CCN2C(=O)COc3c(F)cc(F)cc3C3CCC(CC3)OCC12 (stereo partly shown)
3: C[C@H]1COc2ccccc2C2CCC(CC2)OCC2[C@@H](NS(C)(=O)=O)CCCN21 (stereo partly shown)
Query: Given 3 compounds, produce a descending ranking by Papp A→B at 2 h, 3 μM. The response must list the labels following the requested ordering.
Result: 2, 3, 1
(2: 12 ×10⁻⁶ cm/s, 3: 6.8 ×10⁻⁶ cm/s, 1: 1.2 ×10⁻⁶ cm/s)
